test: PK and blood-brain barrier permeability in mice; type: in vivo; conditions: mouse, plasma; male ICR mice, intravenous 1 mg/kg
// NB: equality with 3000 ng·h/mL counts as Not fulfilled; only AUC(0-inf) strictly below is Fulfilled

>>> qualitative_label("CC(C)C[C@@H](NC(=O)[C@@H](Cc1ccccc1)NC(=O)N(Cc1ccccc1)C1CCNC1)C(=O)N[C@H](CCCCN)C(=O)N1CCC(N)(C(=O)O)CC1 (some centres unmarked)")
"Fulfilled"
>>> qualitative_label("CC(C)C[C@@H](NC(=O)[C@@H](Cc1ccccc1)NC(=O)N(CCN)Cc1ccccc1)C(=O)N[C@H](CCCCN)C(=O)N1CCC2(CC1)NC(=O)NC2=O")
"Not fulfilled"
>>> qualitative_label("CC(C)C[C@@H](NC(=O)[C@@H](Cc1ccccc1)NC(=O)N(CCN)Cc1ccccc1)C(=O)N[C@H](CCCCN)C(=O)N1CCC(N)(C(=O)O)CC1")
"Fulfilled"
>>> qualitative_label("CC(C)C[C@@H](NC(=O)[C@@H](Cc1ccccc1)NC(=O)[C@H](N)Cc1ccccc1)C(=O)N[C@H](CCCCN)C(=O)N1CCC(N)(C(=O)O)CC1 [CR845, reference compound]")
"Fulfilled"
>>> qualitative_label("COC(=O)NC1CCN(C(=O)[C@@H](CCCCN)NC(=O)[C@@H](CC(C)C)NC(=O)[C@@H](Cc2ccccc2)NC(=O)N(C)C(CN)c2ccccc2)CC1 (some centres unmarked)")
"Not fulfilled"

====

assay: PK and blood-brain barrier permeability in mice; assay type: in vivo; conditions: mouse; male ICR mice, intravenous 1 mg/kg, plasma
Parameter: Cmax. Scope: all listed entries.
PARAMETER: Cmax (ng/mL)

>>> obs_value("CC(C)C[C@@H](NC(=O)[C@@H](Cc1ccccc1)NC(=O)N(Cc1ccccc1)C1CCNC1)C(=O)N[C@H](CCCCN)C(=O)N1CCC(N)(C(=O)O)CC1 (some centres unmarked)")
2320
>>> obs_value("CC(C)C[C@@H](NC(=O)[C@@H](Cc1ccccc1)NC(=O)[C@H](N)Cc1ccccc1)C(=O)N[C@H](CCCCN)C(=O)N1CCC(N)(C(=O)O)CC1 [CR845, reference compound]")
1620
>>> obs_value("COC(=O)NC1CCN(C(=O)[C@@H](CCCCN)NC(=O)[C@@H](CC(C)C)NC(=O)[C@@H](Cc2ccccc2)NC(=O)N(C)C(CN)c2ccccc2)CC1 (some centres unmarked)")
2260
>>> obs_value("CC(C)C[C@@H](NC(=O)[C@@H](Cc1ccccc1)NC(=O)N(CCN)Cc1ccccc1)C(=O)N[C@H](CCCCN)C(=O)N1CCS(=O)(=O)CC1")
3460
>>> obs_value("CC(C)C[C@@H](NC(=O)[C@@H](Cc1ccccc1)NC(=O)N(C)C(CN)c1ccccc1)C(=O)N[C@H](CCCCN)C(=O)N1CCS(=N)(=O)CC1 (some centres unmarked)")
3220

====

Assay: PK and blood-brain barrier permeability in mice
Format: in vivo
Conditions: male ICR mice, intravenous 1 mg/kg, blood and brain 5 min after administration
Protocol: The compounds of the present disclosure were investigated for pharmacokinetic characteristics and blood-brain barrier permeability in mice. Healthy male ICR mice were randomly grouped, 6 animals per group. […] Drug contents in plasma and brain tissues at different time points were measured by an LC-MS/MS method, the brain-to-blood ratio B/P was calculated by using EXCEL software, and pharmacokinetic parameters were calculated by using DAS3.0 software.
PARAMETER: B/P (brain-to-blood ratio)

>>> obs_value("CC(C)C[C@@H](NC(=O)[C@@H](Cc1ccccc1)NC(=O)N(C)C(CN)c1ccccc1)C(=O)N[C@H](CCCCN)C(=O)N1CCS(=N)(=O)CC1 (stereo partly shown) [Compound 10]")
0.007
>>> obs_value("CC(C)C[C@@H](NC(=O)[C@@H](Cc1ccccc1)NC(=O)N(CCN)Cc1ccccc1)C(=O)N[C@H](CCCCN)C(=O)N1CCC2(CC1)NC(=O)NC2=O [Compound 29]")
0.010
>>> obs_value("COC(=O)C1(N)CCN(C(=O)[C@@H](CCCCN)NC(=O)[C@@H](CC(C)C)NC(=O)[C@@H](Cc2ccccc2)NC(=O)N(CCN)Cc2ccccc2)CC1 [Compound 13-2]")
"BQL**"
>>> obs_value("CC(C)C[C@@H](NC(=O)[C@@H](Cc1ccccc1)NC(=O)N(CCN)Cc1ccccc1)C(=O)N[C@H](CCCCN)C(=O)N1CCS(=O)(=O)CC1 [Compound 21]")
0.010
>>> obs_value("CC(C)C[C@@H](NC(=O)[C@@H](Cc1ccccc1)NC(=O)N(Cc1ccccc1)C1CCNC1)C(=O)N[C@H](CCCCN)C(=O)N1CCC(N)(C(=O)O)CC1 (stereo partly shown) [Compound 27]")
0.010
>>> obs_value("CC(C)C[C@@H](NC(=O)[C@@H](Cc1ccccc1)NC(=O)N(CCN)Cc1ccccc1)C(=O)N[C@H](CCCCN)C(=O)N1CCC(N)(C(=O)O)CC1 [Compound 13]")
0.015
>>> obs_value("CC(C)C[C@@H](NC(=O)[C@@H](Cc1ccccc1)NC(=O)[C@H](N)Cc1ccccc1)C(=O)N[C@H](CCCCN)C(=O)N1CCC(N)(C(=O)O)CC1 [CR845, reference compound]")
0.015

====

target: μ receptor (Homo sapiens (Human), UniProt P35372); experiment: μ receptor affinity assay (3H-DAMGO); type: binding; settings: read-out: μ receptor Ki
Sequence (P35372 whole entry): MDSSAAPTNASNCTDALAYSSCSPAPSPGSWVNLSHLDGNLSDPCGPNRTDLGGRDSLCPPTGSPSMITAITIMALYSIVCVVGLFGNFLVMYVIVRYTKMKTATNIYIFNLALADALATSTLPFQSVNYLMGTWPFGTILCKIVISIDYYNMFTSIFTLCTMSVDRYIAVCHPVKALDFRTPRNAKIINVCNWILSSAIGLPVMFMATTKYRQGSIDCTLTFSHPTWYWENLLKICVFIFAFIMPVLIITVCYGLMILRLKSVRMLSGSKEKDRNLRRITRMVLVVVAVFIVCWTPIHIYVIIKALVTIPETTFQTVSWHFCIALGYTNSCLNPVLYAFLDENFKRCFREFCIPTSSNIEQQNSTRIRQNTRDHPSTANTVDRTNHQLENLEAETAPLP
pKi: −log10 of the molar value.
Parameter: pKi. Scope: all listed entries.
PARAMETER: pKi

>>> obs_value("CC(C)C[C@@H](NC(=O)[C@@H](Cc1ccccc1)NC(=O)N(CCN)Cc1ccc(F)cc1)C(=O)C[C@H](CCCCN)C(=O)N1CCC(N)(C(=O)O)CC1")
"< 6.00"
>>> obs_value("CC(=O)N(CCCN)C1CCN(C(=O)[C@@H](C)CC(=O)[C@@H](CC(C)C)NC(=O)[C@H](CC(=O)N(CCN)Cc2ccccc2)Cc2ccccc2)CC1")
"< 6.00"
>>> obs_value("CNCCN(Cc1ccccc1)C(=O)N[C@H](Cc1ccccc1)C(=O)N[C@H](CC(C)C)C(=O)C[C@H](CCCCN)C(=O)N1CCC(N)(C(=O)O)CC1")
"< 6.00"

====

biological target: μ receptor (Homo sapiens (Human), UniProt P35372); test: μ receptor affinity assay (3H-DAMGO); type: binding
Square brackets hold non-standard residues; d marks the D form. Peptide text beside a SMILES is read from it. * marks the point of attachment. dPhLac = O=C(O)[C@H](O)Cc1ccccc1; X4 = COC(=O)NC1CCN(*)CC1
Parameter: Ki. Scope: all listed entries.
PARAMETER: Ki

>>> obs_value("CC(=O)N=S1(=O)CCN(C(=O)[C@@H](CCCCN)NC(=O)[C@@H](CC(C)C)NC(=O)[C@@H](Cc2ccccc2)NC(=O)[C@H](N)Cc2ccccc2)CC1")
"> 1000 nM"
>>> obs_value("CC(C)C[C@@H](NC(=O)[C@@H](Cc1ccccc1)NC(=O)N(CCN)Cc1ccccc1)C(=O)N[C@H](CCCCN)C(=O)N1CCC(N)(C(=O)O)CC1")
"> 1000 nM"
>>> obs_value("COC(=O)N=S1(=O)CCN(C(=O)[C@@H](CCCCN)NC(=O)[C@@H](CC(C)C)NC(=O)[C@@H](Cc2ccccc2)NC(=O)[C@H](N)Cc2ccccc2)CC1")
"> 1000 nM"
>>> obs_value("COC(=O)C1(N)CCN(C(=O)[C@@H](CCCCN)NC(=O)[C@@H](CC(C)C)NC(=O)[C@@H](Cc2ccccc2)NC(=O)N(C)C(CN)c2ccccc2)CC1 (some centres unmarked)")
"> 1000 nM"
>>> obs_value("COC(=O)NC1CCN(C(=O)[C@@H](CCCCN)NC(=O)[C@@H](CC(C)C)NC(=O)[C@@H](Cc2ccccc2)NC(=O)[C@H](O)Cc2ccccc2)CC1 [Compound 11] (H-[dPhLac][dF][dL][dK]-X4)")
"> 1000 nM"
>>> obs_value("CC(C)C[C@@H](NC(=O)[C@@H](Cc1ccccc1)NC(=O)N(C)C(CN)c1ccccc1)C(=O)N[C@H](CCCCN)C(=O)N1CCOCC1 (some centres unmarked)")
"> 1000 nM"
>>> obs_value("CC(C)C[C@@H](NC(=O)[C@@H](Cc1ccccc1)NC(=O)N(CCN)Cc1ccccc1)C(=O)N[C@H](CCCCN)C(=O)N1CCOCC1")
"> 1000 nM"
>>> obs_value("CC(C)C[C@@H](NC(=O)[C@@H](Cc1ccccc1)NC(=O)N(Cc1ccccc1)C1CCNC1)C(=O)N[C@H](CCCCN)C(=O)N1CCC(N)(C(=O)O)CC1 (some centres unmarked)")
"> 1000 nM"
>>> obs_value("CN=S1(=O)CCN(C(=O)[C@@H](CCCCN)NC(=O)[C@@H](CC(C)C)NC(=O)[C@@H](Cc2ccccc2)NC(=O)N(CCN)Cc2ccccc2)CC1")
"> 1000 nM"
>>> obs_value("CC(C)C[C@@H](NC(=O)[C@@H](Cc1ccccc1)NC(=O)N(C)C(CN)c1ccccc1)C(=O)N[C@H](CCCCN)C(=O)N1CCC(NC(=O)OC2CCOCC2)CC1 (some centres unmarked)")
"> 1000 nM"
>>> obs_value("CC(C)C[C@@H](NC(=O)[C@@H](Cc1ccccc1)NC(=O)N(CCN)Cc1ccccc1)C(=O)N[C@H](CCCCN)C(=O)N1CCC(C#N)CC1")
"> 1000 nM"
